Source of measurements: ChEMBL document CHEMBL2424607

Tested on: Rattus norvegicus
Assay Summary: Antiinflammatory activity against carrageenan-induced paw edema rat model assessed as inhibition of hind paw swelling administered 1 hr before carrageenan challenge measured after 1 hr by plethysmometer relative to control
Assay type: functional
Endpoint Name: inhibition (INH) (%)
Give the value, in units of %, as a plain number.

Recorded results for 5 compounds are shown here.
O=C(CN1C(=O)c2ccccc2C1=O)N/N=C/c1ccccc1; 14.2
COc1cccc(/C=N/NC(=O)CN2C(=O)c3ccccc3C2=O)c1; 28.5
O=C(CN1C(=O)c2ccccc2C1=O)N/N=C/c1ccc(Cl)cc1; 26.7
Cc1ccc(/C=N/NC(=O)CN2C(=O)c3ccccc3C2=O)cc1; 17.8
COc1cc(/C=N/NC(=O)CN2C(=O)c3ccccc3C2=O)cc(OC)c1OC; 26.7

Which measured inhibition (INH) belongs to COc1cc(/C=N/NC(=O)CN2C(=O)c3ccccc3C2=O)ccc1O , tested on Rattus norvegicus?
32.1
